Tested on: K562 CRISPRi cells
Assay: Perturb-seq pooled growth measurement (sgRNA counts, growth phenotype γ, relative activity)
Type: cell-based, human
Settings: pooled growth phenotype γ of the Perturb-seq sgRNA, day 10, K562 CRISPRi cells
Each item that follows carries a reported gamma_day10.
Would you mind answering with just the numeric figure?

>>> measurement("RPL9_ + _39460483.23-P1P2_00 (guide GGATGTTTCTGTGCTCGTGG; listed as DNA, chemistry not fully specified)")
"−0.6699"
>>> measurement("RAN_ + _131356438.23-P1P2_02 (guide GGCGGCCGCTGCGCTTAGGG; listed as DNA, chemistry not fully specified)")
"−0.2041"
>>> measurement("COX11_ + _53045977.23-P1P2_04 (guide GGCTCTGGCGCCCTGGATGG; listed as DNA, chemistry not fully specified)")
"−0.2574"
>>> measurement("CDC23_ −_137548987.23-P1P2_11 (guide GACAGCCACCGGGACCACGG; listed as DNA, chemistry not fully specified)")
"−0.2018"
>>> measurement("CAD_ + _27440280.23-P1P2_13 (guide GGCTGGAGAGAAGCCTGGCG; listed as DNA, chemistry not fully specified)")
"−0.1648"
>>> measurement("BCR_ + _23523092.23-P1P2_04 (guide GCGCGCGGAGCCCGTCTCAG; listed as DNA, chemistry not fully specified)")
"−0.418"
>>> measurement("SEC61A1_ −_127771295.23-P1_01 (guide GGCACTGTCGTGTCTCTCGG; listed as DNA, chemistry not fully specified)")
"−0.2918"
>>> measurement("HSPE1_ + _198365089.23-P1P2_02 (guide GGAGACTGGCAGTCCGGCCC; listed as DNA, chemistry not fully specified)")
"−0.3565"

Query: Name the recorded gamma_day10 of the substance listed here: GATA1_ −_48645022.23-P1P2_06 (guide GTGAGCTTGCGACATCCCCA; listed as DNA, chemistry not fully specified)
Result: −0.3486

Query: Name the recorded gamma_day10 of the substance listed here: RPL9_ + _39460483.23-P1P2_07 (guide GGATGTTTCTGCGCTCGTGG; listed as DNA, chemistry not fully specified)
Result: −0.2073

Query: Name the recorded gamma_day10 of the substance listed here: HSPA9_ −_137911079.23-P1P2_08 (guide GGAGCTGCTCGATGCGGTGG; listed as DNA, chemistry not fully specified)
Result: −0.2762

Query: Name the recorded gamma_day10 of the substance listed here: EIF2S1_ −_67827080.23-P1P2_06 (guide GAGCGAAGCGCGCGCTGAGG; listed as DNA, chemistry not fully specified)
Result: −0.3635
